# System: α-amylase
# protocolNotes: α-amylase enzyme inhibition assay (starch, dinitro-salicylic acid, 540 nm)
# Assay type: biochemical
# statedConditions: 250 µg/mL, Table 8 (MCu series)
Please respond with reported % Inhibition for every item in the list.
Numbers only, in %.

Observe how each entry below is paired with its result.
compound	unitName	measValue
CN(C)C(=N)NC(=N)N=Cc1ccccc1.CN(C)C(=N)NC(=N)N=Cc1ccccc1.O.O.O.O.O.O=S(=O)([O-])[O-].[Cu+2]	%	19.44
COc1cc(C=NC(=N)NC(=N)N(C)C)ccc1O.COc1cc(C=NC(=N)NC(=N)N(C)C)ccc1O.O.O.O.O.O.O=S(=O)([O-])[O-].[Cu+2]	%	42.68
CC(=NC(=N)NC(=N)N(C)C)c1ccccc1.CC(=NC(=N)NC(=N)N(C)C)c1ccccc1.O.O.O.O.O.O=S(=O)([O-])[O-].[Cu+2]	%	23.34
C[C@H]1O[C@H](O[C@H]2[C@H](O)[C@@H](O)[C@@H](O[C@H]3[C@H](O)[C@@H](O)C(O)O[C@@H]3CO)O[C@@H]2CO)[C@H](O)[C@@H](O)[C@@H]1N[C@H]1C=C(CO)[C@@H](O)[C@H](O)[C@H]1O (stereo partly shown) [Acarbose, reference compound]	%	42.73
CN(C)C(=N)NC(=N)N=C(c1ccccc1)C(O)c1ccccc1.CN(C)C(=N)NC(=N)N=C(c1ccccc1)C(O)c1ccccc1.O.O.O.O.O.O=S(=O)([O-])[O-].[Cu+2] (stereo not shown)	%	13.46

Working through the 5 compounds below one at a time, give % Inhibition for each.
1. CN(C)C(=N)NC(=N)N=CC=Cc1ccccc1.CN(C)C(=N)NC(=N)N=CC=Cc1ccccc1.O.O.O.O.O.O=S(=O)([O-])[O-].[Cu+2]
2. C=NC(=N)NC(=N)N(C)C.C=NC(=N)NC(=N)N(C)C.O.O.O.O.O.O=S(=O)([O-])[O-].[Cu+2]
3. CN(C)C(=N)NC(=N)N=Cc1ccccc1O.CN(C)C(=N)NC(=N)N=Cc1ccccc1O.O.O.O.O.O.O=S(=O)([O-])[O-].[Cu+2]
4. CN(C)C(=N)NC(=N)N=C(c1ccccc1)c1ccccc1.CN(C)C(=N)NC(=N)N=C(c1ccccc1)c1ccccc1.O.O.O.O.O.O=S(=O)([O-])[O-].[Cu+2]
5. CC(C)=NC(=N)NC(=N)N(C)C.CC(C)=NC(=N)NC(=N)N(C)C.O.O.O.O.O.O=S(=O)([O-])[O-].[Cu+2]

Given back:
1. 25.41
2. 19.48
3. 29.52
4. 15.37
5. 12.46

====

# Tested on: α-amylase
# protocolNotes: α-amylase enzyme inhibition assay (starch, dinitro-salicylic acid, 540 nm)
# Assay type: biochemical
# statedConditions: 500 µg/mL, Table 9 (MZn series)
Given measured % Inhibition, output condition met if it is greater than or equal to 40% and condition not met if not.

Here's what some known entries look like.
molecule	qualitativeLabel
COc1cc(C=NC(=N)NC(=N)N(C)C)ccc1O.COc1cc(C=NC(=N)NC(=N)N(C)C)ccc1O.O.O.O.O.O.O=S(=O)([O-])[O-].[Zn+2]	condition met
CN(C)C(=N)NC(=N)N=CC=Cc1ccccc1.CN(C)C(=N)NC(=N)N=CC=Cc1ccccc1.O.O.O.O.O.O=S(=O)([O-])[O-].[Zn+2]	condition met
CN(C)C(=N)NC(=N)N=C(c1ccccc1)c1ccccc1.CN(C)C(=N)NC(=N)N=C(c1ccccc1)c1ccccc1.O.O.O.O.O.O=S(=O)([O-])[O-].[Zn+2]	condition met
CC(=NC(=N)NC(=N)N(C)C)c1ccccc1.CC(=NC(=N)NC(=N)N(C)C)c1ccccc1.O.O.O.O.O.O=S(=O)([O-])[O-].[Zn+2]	condition not met

Attention now turns to another entry.
Asked: State whether the measured % Inhibition reaches 40%, counting equality as reaching it, for C[C@H]1O[C@H](O[C@H]2[C@H](O)[C@@H](O)[C@@H](O[C@H]3[C@H](O)[C@@H](O)C(O)O[C@@H]3CO)O[C@@H]2CO)[C@H](O)[C@@H](O)[C@@H]1N[C@H]1C=C(CO)[C@@H](O)[C@H](O)[C@H]1O (some centres unmarked) [Acarbose, reference compound]
Given back: condition met

====

# tgt: α-glucosidase
# protocolNotes: α-glucosidase enzyme inhibition assay (starch substrate, anthrone reagent, 640 nm)
# Format: biochemical
# statedConditions: Table 6 (MZn series), read-out: IC50
# Protocol: The α-glucosidase-inhibitory activity of all derivatives of metformin was tested using the method previously described. Three test tubes were marked as test (T), blank (B), and control (C). […] The contents in the test tubes were boiled for 15 min, and the absorbance was read at a wavelength at 640 nm. The percentage inhibition was calculated using the following formula:Percentage inhibition = OD of control − OD of test tube/OD of control × 100.
measuredProperty: pIC50
Answers are plain numbers, as −log10 of the molar value.

Observe how each entry below is paired with its result.
>>> df
                                   compound  measvalue
0  CN(C)C(=N)NC(=N)N=CC=Cc1ccccc1.CN(C)C(=N)NC(=N)N=CC=Cc1ccccc1.O.O.O.O.O.O=S(=O)([O-])[O-].[Zn+2] [MZn3]       3.27
1  CN(C)C(=N)NC(=N)N=Cc1ccccc1.CN(C)C(=N)NC(=N)N=Cc1ccccc1.O.O.O.O.O.O=S(=O)([O-])[O-].[Zn+2] [MZn1]       3.15

Working through the 2 compounds below one at a time, give pIC50 for each.
1. CN(C)C(=N)NC(=N)N=Cc1ccccc1O.CN(C)C(=N)NC(=N)N=Cc1ccccc1O.O.O.O.O.O.O=S(=O)([O-])[O-].[Zn+2] [MZn2]
2. COc1cc(C=NC(=N)NC(=N)N(C)C)ccc1O.COc1cc(C=NC(=N)NC(=N)N(C)C)ccc1O.O.O.O.O.O.O=S(=O)([O-])[O-].[Zn+2] [MZn8]

Given back:
3.22
3.19

====

# Test system: α-glucosidase
# protocolNotes: α-glucosidase enzyme inhibition assay (starch substrate, anthrone reagent, 640 nm)
# Format: biochemical
# statedConditions: 250 µg/mL, Table 6 (MZn series)
measuredProperty: % Inhibition (%)
Give bare numbers, in %.

Working through the 6 compounds below one at a time, give % Inhibition for each.
1. CN(C)C(=N)NC(=N)N=Cc1ccccc1O.CN(C)C(=N)NC(=N)N=Cc1ccccc1O.O.O.O.O.O.O=S(=O)([O-])[O-].[Zn+2]
2. CN(C)C(=N)NC(=N)N=Cc1ccccc1.CN(C)C(=N)NC(=N)N=Cc1ccccc1.O.O.O.O.O.O=S(=O)([O-])[O-].[Zn+2]
3. COc1cc(C=NC(=N)NC(=N)N(C)C)ccc1O.COc1cc(C=NC(=N)NC(=N)N(C)C)ccc1O.O.O.O.O.O.O=S(=O)([O-])[O-].[Zn+2]
4. CN(C)C(=N)NC(=N)N=C(c1ccccc1)C(O)c1ccccc1.CN(C)C(=N)NC(=N)N=C(c1ccccc1)C(O)c1ccccc1.O.O.O.O.O.O=S(=O)([O-])[O-].[Zn+2] (stereo not shown)
5. CC(=NC(=N)NC(=N)N(C)C)c1ccccc1.CC(=NC(=N)NC(=N)N(C)C)c1ccccc1.O.O.O.O.O.O=S(=O)([O-])[O-].[Zn+2]
6. CN(C)C(=N)NC(=N)N=C(c1ccccc1)c1ccccc1.CN(C)C(=N)NC(=N)N=C(c1ccccc1)c1ccccc1.O.O.O.O.O.O=S(=O)([O-])[O-].[Zn+2]

Given back:
[43.55, 54.74, 49.24, 28.64, 36.67, 33.67]

====

Please respond with reported % Inhibition for every item in the list.
# System: α-glucosidase
# protocolNotes: α-glucosidase enzyme inhibition assay (starch substrate, anthrone reagent, 640 nm)
# Assay type: biochemical
# statedConditions: 500 µg/mL, Table 5 (MCu series)
Numbers only, in %.

Observe how each entry below is paired with its result.
molecule	tgt	% Inhibition / %
CN(C)C(=N)NC(=N)N=C(c1ccccc1)c1ccccc1.CN(C)C(=N)NC(=N)N=C(c1ccccc1)c1ccccc1.O.O.O.O.O.O=S(=O)([O-])[O-].[Cu+2]	α-glucosidase	37.37
CN(C)C(=N)NC(=N)N=CC=Cc1ccccc1.CN(C)C(=N)NC(=N)N=CC=Cc1ccccc1.O.O.O.O.O.O=S(=O)([O-])[O-].[Cu+2]	α-glucosidase	49.26
CN(C)C(=N)NC(=N)N=C(c1ccccc1)C(O)c1ccccc1.CN(C)C(=N)NC(=N)N=C(c1ccccc1)C(O)c1ccccc1.O.O.O.O.O.O=S(=O)([O-])[O-].[Cu+2] (stereo not shown)	α-glucosidase	28.37
C=NC(=N)NC(=N)N(C)C.C=NC(=N)NC(=N)N(C)C.O.O.O.O.O.O=S(=O)([O-])[O-].[Cu+2]	α-glucosidase	31.28
CN(C)C(=N)NC(=N)N=Cc1ccccc1.CN(C)C(=N)NC(=N)N=Cc1ccccc1.O.O.O.O.O.O=S(=O)([O-])[O-].[Cu+2]	α-glucosidase	61.46
CC(C)=NC(=N)NC(=N)N(C)C.CC(C)=NC(=N)NC(=N)N(C)C.O.O.O.O.O.O=S(=O)([O-])[O-].[Cu+2]	α-glucosidase	38.21

Working through the 3 molecules below one at a time, give % Inhibition for each.
1. COc1cc(C=NC(=N)NC(=N)N(C)C)ccc1O.COc1cc(C=NC(=N)NC(=N)N(C)C)ccc1O.O.O.O.O.O.O=S(=O)([O-])[O-].[Cu+2]
2. CC(=NC(=N)NC(=N)N(C)C)c1ccccc1.CC(=NC(=N)NC(=N)N(C)C)c1ccccc1.O.O.O.O.O.O=S(=O)([O-])[O-].[Cu+2]
3. C[C@H]1O[C@H](O[C@H]2[C@H](O)[C@@H](O)[C@@H](O[C@H]3[C@H](O)[C@@H](O)C(O)O[C@@H]3CO)O[C@@H]2CO)[C@H](O)[C@@H](O)[C@@H]1N[C@H]1C=C(CO)[C@@H](O)[C@H](O)[C@H]1O (stereo partly shown) [Acarbose, reference compound]

Given back:
1. 67.35
2. 24.44
3. 62.41

Asked: Which % Inhibition value is on record for `CN(C)C(=N)NC(=N)N=Cc1ccccc1O.CN(C)C(=N)NC(=N)N=Cc1ccccc1O.O.O.O.O.O.O=S(=O)([O-])[O-].[Cu+2]` ?
Given back: 48.50
